Measured on: Grb2 SH2 (UniProt P62993)
Sequence (P62993 whole entry, looked up): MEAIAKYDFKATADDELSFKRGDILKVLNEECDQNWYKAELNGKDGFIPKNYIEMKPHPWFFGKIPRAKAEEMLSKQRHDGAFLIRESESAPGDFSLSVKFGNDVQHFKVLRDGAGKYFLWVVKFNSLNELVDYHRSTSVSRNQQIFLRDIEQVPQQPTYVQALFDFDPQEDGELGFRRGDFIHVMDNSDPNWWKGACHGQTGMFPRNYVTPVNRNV
Assay explanation: SH2 binding enrichment of the phosphorylated peptide, bacterial display (enrichment ratio); higher = better substrate or ligand; peptides without Tyr show the background
Endpoint label: SH2 binding enrichment
// return a plain number; no unit text

{"columns": ["Sequence entry", "Measured on", "SH2 binding enrichment"],
 "data": [
  ["MTRDIYETDYY [INSR_Y1185]", "Grb2 SH2 (UniProt P62993)", 0.716],
  ["EATKVYLDDPT [G6PD_Y322_G321V]", "Grb2 SH2 (UniProt P62993)", 0.837],
  ["EFENSYIFDIN [GAB1_Y83]", "Grb2 SH2 (UniProt P62993)", 0.82],
  ["FGYPGYQCKHY [TIMP3_Y177_S179C]", "Grb2 SH2 (UniProt P62993)", 0.916],
  ["KLIETYSSKNF [PLP1_Y50_F51S_YF]", "Grb2 SH2 (UniProt P62993)", 0.713],
  ["DAANNYARGHF [TUBA3E_Y103_S101N_YF]", "Grb2 SH2 (UniProt P62993)", 0.665]
]}

// recorded SH2 binding enrichment for GNLLIYTEFGK [HGD_Y166] : 0.687

Quick note, SH2 binding enrichment for KACKHYLTTRT [ZBTB5_Y118] landed at 1.7

Quick note, SH2 binding enrichment for QQIFTYDSGIH [JUP_Y22_T19I_YF] landed at 0.936

get_value(item= VICRRYLVMQR [IL3RA_Y328] , readout=SH2 binding enrichment) returns 0.816

// recorded SH2 binding enrichment for DRLASYLDKVR [KRT10_Y160] : 0.848

----------
Documented phosphorylation enrichment across a set of sequences
Tested on: Fer (mouse)
Assay explanation: phosphorylation enrichment, bacterial display (enrichment ratio); higher = better substrate or ligand; peptides without Tyr show the background
// no unit, no text: just the number

{"columns": ["Sequence entry", "Measured on", "phosphorylation enrichment"],
 "data": [
  ["ESPGLYGFLNV [BCR_Y910]", "Fer (mouse)", 1.23],
  ["IEENGYNTFAS [FGF10_Y161_YF]", "Fer (mouse)", 0.498],
  ["VHSGTYQVTVR [MYBPC3_Y1043]", "Fer (mouse)", 0.435],
  ["RGNKEYKEEKR [LENG1_Y96_E97K]", "Fer (mouse)", 0.303],
  ["RIFDFYSARKA [STOX1_Y858_YF]", "Fer (mouse)", 0.72]
]}

get_value(item= ANAYIYVVQLP [L1CAM_Y420] , readout=phosphorylation enrichment) returns 0.478

In plain terms, PSQRRYVYYYS [PTEN_Y174] has a documented phosphorylation enrichment of 0.503

----------
Measured on: MERTK (UniProt Q12866)
Sequence (Q12866 whole entry, looked up): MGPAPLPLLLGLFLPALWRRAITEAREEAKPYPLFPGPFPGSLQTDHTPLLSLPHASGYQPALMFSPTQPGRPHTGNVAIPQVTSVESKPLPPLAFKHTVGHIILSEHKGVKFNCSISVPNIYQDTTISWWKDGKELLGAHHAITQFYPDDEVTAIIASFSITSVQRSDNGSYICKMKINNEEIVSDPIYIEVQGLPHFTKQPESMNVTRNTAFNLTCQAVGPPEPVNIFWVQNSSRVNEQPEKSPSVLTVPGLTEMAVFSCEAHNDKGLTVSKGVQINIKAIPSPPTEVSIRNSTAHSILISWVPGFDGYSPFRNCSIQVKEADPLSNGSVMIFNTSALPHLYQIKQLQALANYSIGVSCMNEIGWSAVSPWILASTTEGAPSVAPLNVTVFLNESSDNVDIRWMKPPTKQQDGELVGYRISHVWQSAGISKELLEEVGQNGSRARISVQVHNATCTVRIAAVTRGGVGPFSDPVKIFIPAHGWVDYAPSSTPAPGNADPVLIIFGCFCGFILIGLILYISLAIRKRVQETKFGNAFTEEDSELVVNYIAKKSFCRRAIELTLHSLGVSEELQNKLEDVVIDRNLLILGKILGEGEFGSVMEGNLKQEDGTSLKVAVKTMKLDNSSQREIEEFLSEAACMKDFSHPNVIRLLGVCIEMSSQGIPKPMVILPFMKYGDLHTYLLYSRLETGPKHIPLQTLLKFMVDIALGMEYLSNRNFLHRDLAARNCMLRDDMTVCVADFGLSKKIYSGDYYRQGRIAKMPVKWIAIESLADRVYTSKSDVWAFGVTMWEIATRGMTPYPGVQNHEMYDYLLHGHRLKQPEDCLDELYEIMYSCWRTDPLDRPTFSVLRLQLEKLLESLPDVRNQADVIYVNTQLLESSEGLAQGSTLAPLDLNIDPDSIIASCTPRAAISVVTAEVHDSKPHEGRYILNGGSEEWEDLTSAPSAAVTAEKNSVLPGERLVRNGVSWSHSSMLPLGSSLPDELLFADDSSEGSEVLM
Assay explanation: phosphorylation enrichment, bacterial display (enrichment ratio); higher = better substrate or ligand; peptides without Tyr show the background
Endpoint label: phosphorylation enrichment
# respond with the number and nothing more

# phosphorylation enrichment (sequence: GRKTLYSFFSP [UNG_Y8_Q4R] ) is 12

----------
System: c-Abl (mouse)
Assay explanation: phosphorylation enrichment, bacterial display (enrichment ratio); higher = better substrate or ligand; peptides without Tyr show the background
Endpoint label: phosphorylation enrichment

Example results:
{"columns": ["Sequence entry", "Endpoint label", "Value reported"],
 "data": [
  ["VCDALYPPGPP", "phosphorylation enrichment", 0.766],
  ["NLTVNYKKNLI [SQOR_Y259]", "phosphorylation enrichment", 0.495],
  ["SECCKYKIDNL [OSMR_Y689_P694L]", "phosphorylation enrichment", 0.748],
  ["VDTGVYAVPPP [BCAR1_Y410_S407T]", "phosphorylation enrichment", 20.7]
]}

Entry WKKKIYEESST [MOCS2_Y170_E168K] ; phosphorylation enrichment = 0.761

What the record says about DLQDEYDFKRK [STAT1_Y170_C174R] : phosphorylation enrichment is 0.588

For YCRIMYDIFPF [INTS13_Y67] the sequence record lists phosphorylation enrichment as 1.7

What the record says about PRPAGYPSTVS [CACNA1C_Y1832] : phosphorylation enrichment is 0.653

phosphorylation enrichment reported for this sequence LSNPAYRLLLA [DDR1_Y513] : 0.917

# phosphorylation enrichment of QTENKYDSVSG [EIF2AK3_Y565] = 0.56

For LGSWTYTKTVS [ROS1_Y144] the sequence record lists phosphorylation enrichment as 0.965

Taken from the supplement of paper PMC10065799.
